System: Calu-3
Test: cell viability relative to DMSO; higher = less toxic
Conditions: 72 h; 1 nM
I'd appreciate it if you could supply cell viability values for the items below.
Give your result as the value with the unit written after it.

Request: cell viability, test system Calu-3, entry N#Cc1ccc(C2CCCc3cncn32)cc1 (stereo unspecified) [fadrozole]
91.1%

Try this compound next: C=CC1=C(C)c2cc3[nH]c(cc4nc(cc5[nH]c(cc1n2)c(C)c5CCC(=O)O)C(CCC(=O)O)=C4C)c(C)c3C=C [protoporphyrin-IX]
97.4%

Item: O=C(Nc1cccc(C(F)(F)F)c1)Nc1ccc(Br)cc1-c1nnn[nH]1 [NS-3623]
107%

// next record COC(=O)[C@@H](N)CS [mecysteine]
104%

Follow-up entry: CC(C)(C)C(=O)OCOC(=O)[C@@H]1N2C(=O)[C@@H](NC(=O)[C@H](N)c3ccccc3)[C@H]2SC1(C)C [pivampicillin]
110%

Would you mind doing CCNC(=O)c1noc(-c2cc(C(C)C)c(O)cc2O)c1-c1ccc(CN2CCOCC2)cc1 [NVP-AUY922] as well?
84.2%

Quick one: CC(=O)N(CC(O)CO)c1c(I)c(C(=O)NCC(O)CO)c(I)c(C(=O)NCC(O)CO)c1I (stereo unspecified) [iohexol]
104%

What do you have for Cn1cc(-c2ccc3nnc(Sc4ccc5ncccc5c4)n3n2)cn1 [SGX523] ?
89%

Please answer likewise for NC[C@@H]1CC[C@@H](N)[C@@H](O[C@H]2[C@H](O)[C@@H](O[C@H]3O[C@H](CO)[C@@H](O)[C@H](N)[C@H]3O)[C@H](N)C[C@@H]2N)O1 [dibekacin]
101%

Param item: CN(C)CC[C@@]1(c2ccc(Cl)cc2)Cc2ccccc2C(=O)O1 (racemic) [AC-7954-(+/-)]
98.2%

Same read-out for C[C@@H]1CN(Cc2ccc(F)cc2)[C@@H](C)CN1C(=O)c1cc2c(C(=O)C(=O)N(C)C)cn(C)c2cc1Cl [talmapimod] ?
106%

Here is the next compound: O=C(c1cccc(Br)c1)N1CCC(N2CCCC2)CC1 [UNC926]
93.7%

Please answer likewise for FC(F)(F)c1cccc(C2=CCN(CCc3ccc4ccccc4c3)CC2)c1 [xaliproden]
109%

Now consider O=C/C=C/c1ccccc1 [cinnamaldehyde] .
90.3%

Also CNC(=O)c1cc(Oc2ccc(NC(=O)Nc3cc(C(C)(C)C)nn3-c3ccc4ncccc4c3)c(F)c2)ccn1 [rebastinib] ?
100%

Again, but for N#C/C(=C\c1cccn1S(=O)(=O)c1cccc([N+](=O)[O-])c1)S(=O)(=O)c1ccc(F)cc1 [AMZ30]
90.5%

# repeat for COc1ccccc1N1CCN(CC(O)COc2cc(OC)c(OC)c(OC)c2)CC1 (stereo unspecified) [enciprazine]
101%

# repeat for COc1ccc(Oc2c(Cl)cnn(C3c4ccccc4-c4ccccc43)c2=O)cc1
110%

Param item: NC(=O)c1ccc(N(C(N)=O)c2c(F)cccc2F)nc1-c1ccc(F)cc1F [VX-702]
101%

Same question for COC(=O)[C@H](Cc1ccccc1)NC(=O)[C@@H](N)CC(=O)O [aspartame] please.
91.2%

Next compound up: O=C(Nc1cccc2c(=O)cc(-c3nnn[nH]3)oc12)c1ccc(OCCCCc2ccccc2)cc1 [pranlukast]
102%

Also, COc1cc(OC)c(C(=O)CCCCN2CCC3(CC2)NC(=O)NC3=O)cc1NS(=O)(=O)c1ccc(C(F)(F)F)cc1 please.
98.2%

Here is the next compound: CC[C@H](C)C[C@H](C)CCCCCCCCC(=O)N[C@H]1C[C@@H](O)[C@@H](NCCN)NC(=O)[C@@H]2[C@@H](O)CCN2C(=O)[C@H]([C@H](O)CCN)NC(=O)[C@H]([C@H](O)[C@@H](O)c2ccc(O)cc2)NC(=O)[C@@H]2C[C@@H](O)CN2C(=O)[C@H]([C@@H](C)O)NC1=O [caspofungin]
104%

Next compound up: CC(C)[C@H](N)C(=O)OCC(CO)OCn1cnc2c(=O)nc(N)[nH]c21 (mixture of isomers) [valganciclovir]
107%

Same question for COc1ccc(-c2cc(=O)c3c(OC)c(OC)c(OC)c(OC)c3o2)cc1OC [nobiletin] please.
99.5%

// repeat for CN[C@@H]1[C@@H](O)[C@@H](O[C@@H]2[C@@H](O)[C@H](O[C@H]3OC(CN)=CC[C@H]3N)[C@@H](N)C[C@H]2N)OC[C@]1(C)O [Sisomicin (sulfate)] and report
105%

Would you mind doing COc1ccc(-c2csc(NC(=O)[C@H]3CCCCN3S(=O)(=O)c3ccc(C)cc3)n2)cc1 [ML277] as well?
91%

Same thing, different compound: FC(F)c1nc2ccccc2n1-c1nc(N2CCOCC2)nc(N2CCOCC2)n1 [ZSTK-474]
101%

And for O=C(O)CCc1c[nH]c2ccccc12 ?
98.7%

Follow-up item: CO[C@@H](C(=O)N1Cc2[nH]nc(NC(=O)c3ccc(N4CCN(C)CC4)cc3)c2C1)c1ccccc1 [danusertib]
89%

Would you kindly repeat that for C[C@@H](CN1CC(=O)NC(=O)C1)N1CC(=O)NC(=O)C1 [dexrazoxane] ?
104%

Sourced from the supplement of paper PMC13380429
